Source of measurements: the supplement of paper PMC5998384

System: HeLa Kyoto
Assay overview: solubility in G1/S (NP-40 vs SDS abundance) (log2 ratio); higher = more soluble
Particulars: cell cycle stage: G1/S
Below, each entry is listed alongside its reported solubility in G1/S (log2).

[
  {
    "Sequence entry": "MAGLPRRIIKETQRLLAEPVPGIKAEPDESNARYFHVVIAGPQDSPFEGGTFKLELFLPEEYPMAAPKVRFMTKIYHPNVDKLGRICLDILKDKWSPALQIRTVLLSIQALLSAPNPDDPLANDVAEQWKTNEAQAIETARAWTRLYAMNNI [UBE2N]",
    "solubility in G1/S (log2)": 0.641
  },
  {
    "Sequence entry": "MPLTGVGPGSCRRQIIRALCLLLLLLHAGSAKNIWKRALPARLAEKSRAEEAGAPGGPRQPRADRCPPPPRTLPPGACQAARCQADSECPRHRRCCYNGCAYACLEAVPPPPVLDWLVQPKPRWLGGNGWLLDGPEEVLQAEACSTTEDGAEPLLCPSGYECHILSPGDVAEGIPNRGQCVKQRRQADGRILRHKLYKEYPEGDSKNVAEPGRGQQKHFQ [WFDC1]",
    "solubility in G1/S (log2)": 0.101
  },
  {
    "Sequence entry": "MSDLLLLGLIGGLTLLLLLTLLAFAGYSGLLAGVEVSAGSPPIRNVTVAYKFHMGLYGETGRLFTESCSISPKLRSIAVYYDNPHMVPPDKCRCAVGSILSEGEESPSPELIDLYQKFGFKVFSFPAPSHVVTATFPYTTILSIWLATRRVHPALDTYIKERKLCAYPRLEIYQEDQIHFMCPLARQGDFYVPEMKETEWKWRGLVEAIDTQVDGTGADTMSDTSSVSLEVSPGSRETSAATLSPGASSRGWDDGDTRSEHSYSESGASGSSFEELDLEGEGPLGESRLDPGTEPLGTTKWLWEPTAPEKGKE [TEX264]",
    "solubility in G1/S (log2)": -0.0622
  }
]

====

Below, each entry is listed alongside its reported thermal stability score.
System: HeLa Kyoto
Assay overview: thermal stability score vs G1/S (z-score of summed log2 fold changes over temperatures); higher = more thermally stable than in G1/S
Particulars: cell cycle stage: mitosis
Readout: thermal stability score

[
  {
    "Sequence entry": "MPSKKKKYNARFPPARIKKIMQTDEEIGKVAAAVPVIISRALELFLESLLKKACQVTQSRNAKTMTTSHLKQCIELEQQFDFLKDLVASVPDMQGDGEDNHMDGDKGARRGRKPGSGGRKNGGMGTKSKDKKLSGTDSEQEDESEDTDTDGEEETSQPPPQASHPSAHFQSPPTPFLPFASTLPLPPAPPGPSAPDEEDEEDYDS [DRAP1]",
    "Assayed target": "HeLa Kyoto",
    "Readout": "thermal stability score",
    "Data value": -2.89
  },
  {
    "Sequence entry": "MKKSIGILSPGVALGMAGSAMSSKFFLVALAIFFSFAQVVIEANSWWSLGMNNPVQMSEVYIIGAQPLCSQLAGLSQGQKKLCHLYQDHMQYIGEGAKTGIKECQYQFRHRRWNCSTVDNTSVFGRVMQIGSRETAFTYAVSAAGVVNAMSRACREGELSTCGCSRAARPKDLPRDWLWGGCGDNIDYGYRFAKEFVDARERERIHAKGSYESARILMNLHNNEAGRRTVYNLADVACKCHGVSGSCSLKTCWLQLADFRKVGDALKEKYDSAAAMRLNSRGKLVQVNSRFNSPTTQDLVYIDPSPDYCVRNESTGSLGTQGRLCNKTSEGMDGCELMCCGRGYDQFKTVQTERCHCKFHWCCYVKCKKCTEIVDQFVCK [WNT5A]",
    "Assayed target": "HeLa Kyoto",
    "Readout": "thermal stability score",
    "Data value": 0.339
  },
  {
    "Sequence entry": "MLGFITRPPHRFLSLLCPGLRIPQLSVLCAQPRPRAMAISSSSCELPLVAVCQVTSTPDKQQNFKTCAELVREAARLGACLAFLPEAFDFIARDPAETLHLSEPLGGKLLEEYTQLARECGLWLSLGGFHERGQDWEQTQKIYNCHVLLNSKGAVVATYRKTHLCDVEIPGQGPMCESNSTMPGPSLESPVSTPAGKIGLAVCYDMRFPELSLALAQAGAEILTYPSAFGSITGPAHWEVLLRARAIETQCYVVAAAQCGRHHEKRASYGHSMVVDPWGTVVARCSEGPGLCLARIDLNYLRQLRRHLPVFQHRRPDLYGNLGHPLS [NIT1]",
    "Assayed target": "HeLa Kyoto",
    "Readout": "thermal stability score",
    "Data value": -2.71
  },
  {
    "Sequence entry": "MLSAASRVVSRAAVHCALRSPPPEARALAMSRPPPPRVASVLGTMEMGRRMDAPASAAAVRAFLERGHTELDTAFMYSDGQSETILGGLGLGLGGGDCRVKIATKANPWDGKSLKPDSVRSQLETSLKRLQCPQVDLFYLHAPDHGTPVEETLHACQRLHQEGKFVELGLSNYASWEVAEICTLCKSNGWILPTVYQGMYNATTRQVETELFPCLRHFGLRFYAYNPLAGGLLTGKYKYEDKDGKQPVGRFFGNSWAETYRNRFWKEHHFEAIALVEKALQAAYGASAPSVTSAALRWMYHHSQLQGAHGDAVILGMSSLEQLEQNLAATEEGPLEPAVVDAFNQAWHLVAHECPNYFR [AKR7A2]",
    "Assayed target": "HeLa Kyoto",
    "Readout": "thermal stability score",
    "Data value": 0.31
  },
  {
    "Sequence entry": "MAASRLELNLVRLLSRCEAMAAEKRDPDEWRLEKYVGALEDMLQALKVHASKPASEVINEYSWKVDFLKGMLQAEKLTSSSEKALANQFLAPGRVPTTARERVPATKTVHLQSRARYTSEMRSELLGTDSAEPEMDVRKRTGVAGSQPVSEKQLAAELDLVLQRHQNLQEKLAEEMLGLARSLKTNTLAAQSVIKKDNQTLSHSLKMADQNLEKLKTESERLEQHTQKSVNWLLWAMLIIVCFIFISMILFIRIMPKLK [USE1]",
    "Assayed target": "HeLa Kyoto",
    "Readout": "thermal stability score",
    "Data value": 0.48
  }
]
